Would you mind telling me the reported fraction unbound at 5 h of each entry?
- test name: in vitro
- test context: SD, HW or BN, rat, plasma
Output spec: single numeric token, no unit.

Query: // returns reported fraction unbound at 5 h for input `Cc1c(-c2cc3ccccc3o2)oc(=O)c(C)c1O`
Response: 0.0026

Query: // returns reported fraction unbound at 5 h for input `CS(=O)(=O)N1CCC(NC(=O)NC23CC4CC(CC(C4)C2)C3)CC1`
Response: 0.262

Query: // returns reported fraction unbound at 5 h for input `CNC(=O)c1ccc(Oc2ccc3c(c2)CCN(C2CCC2)CC3)nc1`
Response: 0.523

Query: // returns reported fraction unbound at 5 h for input `Cc1c(Sc2ccc(Cl)cc2)c2c(NS(C)(=O)=O)cccc2n1CC(=O)O`
Response: 0.0031

Query: // returns reported fraction unbound at 5 h for input `O=C(CCCN1CC[Si](O)(c2cccc(C(F)(F)F)c2)CC1)c1ccc(F)cc1`
Response: 0.0447

Query: // returns reported fraction unbound at 5 h for input `O=c1[nH]c2ccccc2n1CCCN1CCC(n2c(=O)[nH]c3cc(Cl)ccc32)CC1`
Response: 0.069

Query: // returns reported fraction unbound at 5 h for input `Cc1c(OC2CCN(CC3CCN([C@@](C)(Cc4ccc(F)cc4)C(=O)O)CC3)CC2)ccc(Cl)c1Cl`
Response: 0.0752

Query: // returns reported fraction unbound at 5 h for input O=C(NCc1ccc(OC(F)(F)F)cc1)C1c2ccccc2C(=O)N1CCc1ccccn1 (stereo not given)
Response: 0.0447

Query: // returns reported fraction unbound at 5 h for input `CC(C)NC[C@@H](O)COc1cccc2ccccc12`
Response: 0.179

Query: // returns reported fraction unbound at 5 h for input `CCOc1ccc([C@@H](C)Nc2nc(N3CCN(C(C)=O)CC3)nc3c2CN(C(C)C)C3=O)cc1F`
Response: 0.258

Query: // returns reported fraction unbound at 5 h for input `Cc1onc(-c2c(Cl)cccc2Cl)c1NC(=O)OCc1c(F)cccc1Cl`
Response: 0.003

Query: // returns reported fraction unbound at 5 h for input CCNC(=O)Nc1sc2ccccc2c1C(=O)N1CCC(N2CCCC3(CCN(CC)C3=O)C2)CC1 (stereo not given)
Response: 0.17

Query: // returns reported fraction unbound at 5 h for input `Cc1cn([C@H]2CCCN([C@H](CC(C)C)c3ccc(C(=O)O)c(Oc4cccc(Cl)c4)c3)C2)c(=O)[nH]c1=O`
Response: 0.0175

Query: // returns reported fraction unbound at 5 h for input `C[C@@](O)(C(=O)Nc1ccc(S(C)(=O)=O)cc1Cl)C(F)(F)F`
Response: 0.16

Query: // returns reported fraction unbound at 5 h for input `CCNC(=O)[C@H]1C[C@@](F)(c2ccc(CN3CCCC3)c(F)c2)C1`
Response: 0.772

Query: // returns reported fraction unbound at 5 h for input CC(O)(C(=O)Nc1ccc(S(=O)(=O)N2CCCC2)cc1)C(F)(F)F (stereo not given)
Response: 0.119

Query: // returns reported fraction unbound at 5 h for input CCc1cc(C(N)=S)ccn1 [ETHIONAMIDE]
Response: 0.54

Query: // returns reported fraction unbound at 5 h for input `CC(C)NC[C@H](O)COc1cccc2ccccc12`
Response: 0.204

Query: // returns reported fraction unbound at 5 h for input `COc1cc(NC(=O)c2ccccn2)ccc1Cl`
Response: 0.0447

Query: // returns reported fraction unbound at 5 h for input `Cc1cc(Nc2cnc(C#N)c(N[C@@H](C)c3ccc(F)cn3)n2)n[nH]1`
Response: 0.16

# credit: ChEMBL document CHEMBL3301361
